Target: Mitogen-activated protein kinase 3 (Homo sapiens)
Assay: Inhibition of ERK1 at 30 uM by microfluidic mobility shift assay
experimental_endpoint: inhibition (%)

Completed entries (count: 2):
Look up inhibition for this compound: `Cc1cc2nn(-c3ccccc3)c(N)c2c(=O)[nH]1` 7

Next compound: `CN1CCN(c2ccc(-c3cc4[nH]nc(N)c4c(=O)[nH]3)cc2)CC1` 4

I = Nc1c2cnc(-c3ccccc3)cc2nn1-c1ccccc1
II = Nc1c2c(=O)[nH]c(-c3ccccc3)cc2nn1-c1ccccc1
III = Cc1cc2[nH]nc(N)c2cn1
IV = Cc1cc2c(c(NS(C)(=O)=O)nn2C)c(=O)[nH]1
List items by inhibition in falling order. Answer by writing out the labels in the requested order. II, III, I, IV
